Tgt: human PD-L1 (Homo sapiens (Human), UniProt Q9NZQ7)
Sequence (Q9NZQ7 19-290): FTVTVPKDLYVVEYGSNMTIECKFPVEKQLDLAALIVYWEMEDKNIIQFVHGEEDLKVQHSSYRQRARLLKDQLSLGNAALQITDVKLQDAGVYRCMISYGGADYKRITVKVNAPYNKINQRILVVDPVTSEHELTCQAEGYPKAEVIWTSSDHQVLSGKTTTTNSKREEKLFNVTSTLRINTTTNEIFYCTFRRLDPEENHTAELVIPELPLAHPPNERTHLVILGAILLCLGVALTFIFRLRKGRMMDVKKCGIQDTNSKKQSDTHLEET
Method description: T cell activation luciferase reporter cell culture system (T Cell Activation Assay)
Type: cell-based
Measurement context: luciferase reporter assay; PD-L1 aAPC/CHO-K1 cells with PD-1 effector Jurkat T cells
Assay readout: EC50

Solved cases below.
COc1cc(-c2nccc(-c3cccc(-c4ccc(CN5CC6(CNC(=O)C6)C5)c(OC)n4)c3C#N)c2Cl)ccc1CN1CC2(CNC(=O)C2)C1 :: 208 nM
COCCNCc1ccc(-c2nccc(-c3cccc(-c4ccc(CNCCOC)c(OC)n4)c3C(F)(F)F)c2Cl)cc1OC :: ≥ 10000 nM
COc1cc(-c2nccc(-c3cccc(-c4ccc(CNC5CCN(C(=O)CO)CC5)c(OC)n4)c3Cl)c2Cl)ccc1CNC1CCN(C(=O)CO)CC1 :: 10.5 nM
COc1nc(-c2cccc(-c3ccnc(-c4cc5c(=O)n(C)c(CNC[C@H](C)O)nn5c4)c3Cl)c2Cl)ccc1CNC[C@@H]1CCC(=O)N1 :: 221 nM

Below is a list of compounds. For each, state its recorded EC50.
1. COc1cc(-c2nccc(-c3cccc4c3CCC[C@@H]4Nc3nc(OC)c(CNC[C@@H]4CCC(=O)N4)cc3C(F)(F)F)c2Cl)ccc1CNC[C@@H]1CCC(=O)N1
2. COc1nc(-c2cccc(-c3ccnc(-c4ccc5c(c4)CNC5)c3Cl)c2Cl)ccc1CNCCO

Found:
1: ≥ 10000 nM; 2: 150 nM

* * *

Tgt: human PD-L1 (Homo sapiens (Human))
Method description: T cell activation luciferase reporter cell culture system (T Cell Activation Assay)
Format: cell-based
Measurement context: luciferase reporter assay; PD-L1 aAPC/CHO-K1 cells with PD-1 effector Jurkat T cells
pEC50: −log10 of the molar value.
Quick rule for you: pEC50 at 7 or higher means fulfilled, lower means not fulfilled.

COc1cc(-c2nccc(-c3cccc(-c4ccc(CN5CC6(CC(O)C6)C5)c(OC)n4)c3Cl)c2Cl)ccc1CN1CC2(CNC(=O)C2)C1 [Example 521] :: fulfilled

Lookup: Tell me whether pEC50 is at least 7 here: CNCc1ccc(-c2cccc(-c3ccnc(-c4cc(CNCCC(=O)O)cc(OC)c4)c3Cl)c2Cl)nc1OC [Compound 170]
Found: not fulfilled

Lookup: Tell me whether pEC50 is at least 7 here: COc1cc(-c2nccc(-c3cccc(NC(=O)c4ccc(CNCCO)cn4)c3C)c2Cl)cc(F)c1CNCCO [Example 762]
Found: fulfilled

Lookup: Tell me whether pEC50 is at least 7 here: COCCC(=O)N1CCC(NCc2ccc(-c3cccc(-c4ccnc(-c5ccc(CN6CCC(O)CC6)c(OC)c5)c4Cl)c3Cl)nc2OC)CC1 [Example 616]
Found: fulfilled

Lookup: Tell me whether pEC50 is at least 7 here: Cc1c(NC(=O)c2ccc(CNCCO)cn2)cccc1-c1ccnc(-c2ccc(CNC[C@@H]3CCC(=O)N3)c(OC(F)F)c2)c1Cl [Example 770]
Found: fulfilled

* * *

Please go through the items and note down their EC50.
Tgt: human PD-L1 (Homo sapiens (Human))
Method description: T cell activation luciferase reporter cell culture system (T Cell Activation Assay)
Type: cell-based
Measurement context: luciferase reporter assay; PD-L1 aAPC/CHO-K1 cells with PD-1 effector Jurkat T cells

Solved cases below.
COc1cc(-c2nccc(-c3cccc(-c4ccc(CN5CCC(NC(C)=O)CC5)c(OC)n4)c3C)c2C)ccc1CN1CCC(NC(C)=O)CC1 [Example 461] :: ≥ 10000 nM
COc1cc(-c2ncnc(-c3cccc(-c4ccc(CN5CC6(CCC(=O)N6)C5)c(OC)n4)c3Cl)c2OC)ccc1CN1CC2(CCC(=O)N2)C1 [Example 743] :: ≥ 10000 nM
COc1nc(-c2cccc(-c3ccnc(-c4cc5c(=O)n(C)c(CN6CC(C)(O)C6)nn5c4)c3Cl)c2Cl)ccc1CNC[C@@H]1CCC(=O)N1 [Compound 110] :: 60.5 nM

Below is a list of molecules. For each, state its recorded EC50.
1. COc1nc(-c2cccc(-c3ccnc(-c4ccc5c(c4)CNC5)c3Cl)c2Cl)ccc1CNC[C@@H]1CCC(=O)N1 [Compound 116]
2. COc1cc(-c2nccc(-c3cccc4c3CCC[C@@H]4Nc3nc(OC)c(CN4CC5(CNC(=O)C5)C4)cc3C(F)(F)F)c2Cl)ccc1CNC[C@@H]1CCC(=O)N1 [Example 724]
3. COc1nc(-c2cccc(-c3ccnc(-c4cc(OC)c5nc(CN6CC(C(=O)O)C6)cn5c4)c3Cl)c2Cl)ccc1CNC[C@@H]1CCC(=O)N1 [Example 350]
4. COc1cc(-c2ncnc(-c3cccc(-c4ccc(CN[C@H]5C[C@H](O)C5)c(OC)n4)c3Cl)c2Cl)ccc1CN1CC2(CNC(=O)C2)C1 [Example 740]
5. COc1nc(-c2cccc(-c3ccnc(-c4cc(OC)c5nc(CNC6CCN(C(C)=O)CC6)nn5c4)c3Cl)c2Cl)ccc1CNC(C)C [Compound 765]

Found:
1. 64.9 nM
2. ≥ 10000 nM
3. 89.2 nM
4. 80.4 nM
5. 1280 nM

* * *

Tgt: human PD-L1 (Homo sapiens (Human))
Method description: T cell activation luciferase reporter cell culture system (T Cell Activation Assay)
Format: cell-based
Measurement context: luciferase reporter assay; PD-L1 aAPC/CHO-K1 cells with PD-1 effector Jurkat T cells
Please go through the items and note down their pEC50.
Answers are plain numbers, as −log10 of the molar value.

Solved cases below.
COc1nc(-c2cccc(-c3ccnc(-c4ccc5c(CNC6CCN(C(C)=O)CC6)cn(C)c5c4)c3Cl)c2Cl)ccc1CNC[C@@H]1CCC(=O)N1 :: 7.32
COc1nc(-c2cccc(-c3ccnc(-c4cnc5cc(CNC[C@@H]6CCC(=O)N6)ccc5c4)c3Cl)c2Cl)ccc1CNC[C@@H]1CCC(=O)N1 :: 6.90
COc1cc(-c2nccc(-c3cccc(-c4ccc(CNC5CCN(C(C)=O)CC5)c(OC)n4)c3Cl)c2Cl)cnc1CNC1CCN(C(C)=O)CC1 :: 7.33
COc1nc(-c2cccc(-c3ccnc(-c4ccc5c(CNC6CCN(C(C)=O)CC6)cn(C)c5c4)c3Cl)c2Cl)ccc1CNC1CCN(C(C)=O)CC1 :: 6.77
COc1nc(-c2cccc(-c3nccc(-c4ccc(CNC5CCN(C(C)=O)CC5)c(OC)n4)c3Cl)c2Cl)ccc1CNC1CCN(C(C)=O)CC1 :: 7.76

Below is a list of compounds. For each, state its recorded pEC50.
1. COc1nc(-c2ccnc(-c3cccc4c3CC[C@@H]4Nc3nc(OC)c(CNC4CCOCC4)cc3C(F)(F)F)c2Cl)ccc1CNC[C@@H]1CCC(=O)N1
2. COc1nc(-c2cccc(-c3ccnc(-c4ccc(CN5CC6(CNC(=O)C6)C5)c(OC)n4)c3Cl)c2Cl)ccc1CN1CC2(CNC(=O)C2)C1
3. COc1cc(-c2nccc(-c3cccc(-c4ccc(CNC5CCN(C(C)=O)CC5)c(OC)n4)c3C#N)c2Cl)ccc1CNC1CCN(C(C)=O)CC1
4. COc1nc(-c2cccc(-c3nccc(-c4ccc(CN5CC6(CNC(=O)C6)C5)c(OC)n4)c3Cl)c2Cl)ccc1CN1CCC(O)CC1

Found:
1: 6.96; 2: 7.57; 3: 6.57; 4: 7.63

* * *

Tgt: human PD-L1 (Homo sapiens (Human))
Method description: T cell activation luciferase reporter cell culture system (T Cell Activation Assay)
Assay type: cell-based
Measurement context: luciferase reporter assay; PD-L1 aAPC/CHO-K1 cells with PD-1 effector Jurkat T cells
Please go through the items and note down their pEC50.
Give bare numbers, as −log10 of the molar value.

COc1cc(-c2nccc(-c3cccc(-c4ccc(CN(C)CCO)c(OC)n4)c3Cl)c2Cl)ccc1CN(C)CCO :: 5.29

Below is a list of compounds. For each, state its recorded pEC50.
1. COc1cc(-c2nccc(-c3cccc(-c4ccc(CN[C@H]5CCC(=O)NC5)c(OC)n4)c3Cl)c2Cl)ccc1CNC1CCN(C(C)=O)CC1
2. COc1cc(-c2nccc(-c3cccc(NC(=O)c4ccc(CNCCO)cn4)c3C)c2Cl)ccc1CNC[C@@H]1CCC(=O)N1

Found:
1. 7.10
2. 7.81

Lookup: // Input: COCC(=O)N1CCC(NCc2ccc(-c3cccc(-c4ccnc(-c5ccc(CN6CCC(O)CC6)c(OC)c5)c4Cl)c3Cl)nc2OC)CC1 . Output its pEC50 only.
Found: 7.57

* * *

Tgt: PD-L1 His protein / PD-1 Fc protein (Homo sapiens (Human), UniProt Q9NZQ7)
Sequence (Q9NZQ7 19-238): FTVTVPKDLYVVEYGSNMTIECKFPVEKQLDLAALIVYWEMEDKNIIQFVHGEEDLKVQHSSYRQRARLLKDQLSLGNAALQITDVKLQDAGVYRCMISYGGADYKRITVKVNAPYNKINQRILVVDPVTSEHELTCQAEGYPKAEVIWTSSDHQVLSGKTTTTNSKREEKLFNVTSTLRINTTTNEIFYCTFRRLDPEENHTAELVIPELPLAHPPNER
Method description: HTRF Assay (PD-1/PD-L1 interaction)
Assay type: binding
Measurement context: PD-L1 His 6 nM, PD-1 Fc 6 nM
Please go through the items and note down their pIC50.
Give bare numbers, as −log10 of the molar value.

COc1nc(-c2ccnc(-c3cccc4c3CC[C@@H]4Nc3nc(OC)c(CN4CC5(CNC(=O)C5)C4)nc3C(F)(F)F)c2Cl)ccc1CN1CC2(CNC(=O)C2)C1 [Example 304] :: 8.19
COc1nc(-c2cccc(-c3ccnc(-c4cc5c(=O)n(C)c(CNC[C@@H]6CCC(=O)N6)nn5c4)c3Cl)c2Cl)ccc1CNC[C@@H]1CCC(=O)N1 [Compound 103] :: 9.15

Lookup: // Input: CNCc1ccc(-c2cccc(-c3ccnc(-c4ccc(CN5CC6(CC(C(=O)OC(C)C)C6)C5)c(OC)c4)c3Cl)c2Cl)nc1OC [Example 281] . Output its pIC50 only.
Found: 7.96
